Assay: in vivo
Conditions: male, CD-1, mouse, plasma, po, 30 mg/kg
property-name: AUC(0-t) (ng·h/mL)
Only the number, expressed in ng·h/mL, is required.

Reported AUC(0-t) ( CCCCCCCCCCCCCCCCCCOCCOP(=O)(O)OC[C@H]1O[C@@H](n2cnc(C(N)=O)n2)[C@H](O)[C@@H]1O [(ODE) phosphodiester ribavirin prodrug] ) = 1660

====

Assay: in vivo
Details: male, CD-1, mouse, plasma, po, 30 mg/kg
property-name: Tmax (h)
Only the number, expressed in h, is required.

Reported Tmax ( CCCCCCCCCCCCCCCCCCOCCOP(=O)(O)OC[C@H]1O[C@@H](n2cnc(C(N)=O)n2)[C@H](O)[C@@H]1O [(ODE) phosphodiester ribavirin prodrug] ) = 3

====

Experiment: in vivo
Conditions: male, CD-1, mouse, plasma, iv, 5 mg/kg
property-name: AUC(0-inf)
Could you write the number and then its unit?

Reported AUC(0-inf) ( CCCCCCCCCCCCCCCCCCOCCOP(=O)(O)OC[C@H]1O[C@@H](n2cnc(C(N)=O)n2)[C@H](O)[C@@H]1O [(ODE) phosphodiester ribavirin prodrug] ) = 2660 ng·h/mL

====

Experiment: in vivo
Conditions: male, CD-1, mouse, plasma, oral, 30 mg/kg
property-name: bioavailability
Could you write the number and then its unit?

Reported bioavailability ( CCCCCCCCCCCCCCCCCCOCCOP(=O)(O)OC[C@H]1O[C@@H](n2cnc(C(N)=O)n2)[C@H](O)[C@@H]1O [(ODE) phosphodiester ribavirin prodrug] ) = 10.7%

====

Experiment: in vivo
Conditions: male, CD-1, mouse, plasma, iv, 5 mg/kg
property-name: Tmax (min)
Only the number, expressed in min, is required.

Reported Tmax ( CCCCCCCCCCCCCCCCCCOCCOP(=O)(O)OC[C@H]1O[C@@H](n2cnc(C(N)=O)n2)[C@H](O)[C@@H]1O [(ODE) phosphodiester ribavirin prodrug] ) = 15

====

Test: in vivo
Conditions: male, CD-1, mouse, plasma, po, 30 mg/kg
property-name: AUC(0-inf) (ng·h/mL)
Only the number, expressed in ng·h/mL, is required.

Reported AUC(0-inf) ( CCCCCCCCCCCCCCCCCCOCCOP(=O)(O)OC[C@H]1O[C@@H](n2cnc(C(N)=O)n2)[C@H](O)[C@@H]1O [(ODE) phosphodiester ribavirin prodrug] ) = 1700

====

Assay: CytoTox-ONE LDH release cytotoxicity assay, PBMC
Type: cell-based
Conditions: PBMC cells, read-out: TC50 (toxic concentration decreasing cell viability by 50%)
property-name: CC50 (µM)
Only the number, expressed in µM, is required.

Reported CC50 ( CCCCCCCCCCCCCCCCCCOCCOP(=O)(O)OC[C@H]1O[C@@H](n2cnc(C(N)=O)n2)[C@H](O)[C@@H]1O [(ODE) phosphodiester ribavirin prodrug] ) = 111

====

Experiment: in vivo
Conditions: male, CD-1, mouse, plasma, iv, 5 mg/kg
property-name: AUC(0-t) (ng·h/mL)
Only the number, expressed in ng·h/mL, is required.

Reported AUC(0-t) ( CCCCCCCCCCCCCCCCCCOCCOP(=O)(O)OC[C@H]1O[C@@H](n2cnc(C(N)=O)n2)[C@H](O)[C@@H]1O [(ODE) phosphodiester ribavirin prodrug] ) = 2640

====

Assay: in vivo
Settings: male, CD-1, mouse, plasma, iv, 5 mg/kg
property-name: clearance (mL/min/kg)
Only the number, expressed in mL/min/kg, is required.

Reported clearance ( CCCCCCCCCCCCCCCCCCOCCOP(=O)(O)OC[C@H]1O[C@@H](n2cnc(C(N)=O)n2)[C@H](O)[C@@H]1O [(ODE) phosphodiester ribavirin prodrug] ) = 31.3

====

Assay: in vivo
Conditions: male, CD-1, mouse, plasma, iv, 5 mg/kg
property-name: Cmax (ng/mL)
Only the number, expressed in ng/mL, is required.

Reported Cmax ( CCCCCCCCCCCCCCCCCCOCCOP(=O)(O)OC[C@H]1O[C@@H](n2cnc(C(N)=O)n2)[C@H](O)[C@@H]1O [(ODE) phosphodiester ribavirin prodrug] ) = 1960

Recorded values, source patent US20100298256A1.
